test system: OVCAR-4 ovarian; experiment: NCI-60 one-dose screen, 48 h (100 = growth as untreated, 0 = no growth, -100 = all killed); settings: 10 µM
Compounds without any hit were thinned out: in the full panel of roughly 83,000, 20% have a hit.
Answer each item with its documented growth.
One number for each entry, in %.

Use the examples below as a reference point.
Cn1c([N+](=O)[O-])cnc1C=C1C(=O)c2ccccc2C1=O : 56.8
CCOC(=O)c1cc2c(n1Cc1cccc(OC)c1)-c1oncc1CC2 : 69.1
COc1ccc(-c2csc(NC(=O)CO[N+](=O)[O-])n2)cc1 : 103

Fill in growth for each of the 3 molecules listed.
1. O=C(NC1CCCC1)c1ccc(N2CCC(NCc3cccc(C(F)(F)F)c3)CC2)cc1
2. CN(C)Cc1cccs1
3. Nc1nc(SCC#CCCl)c2[nH]cnc2n1

# output
1. 89.5
2. 109
3. 43.1

Fill in growth for each of the 8 molecules listed.
1. CNC(=S)Sc1ccc([N+](=O)[O-])cc1[N+](=O)[O-]
2. NC(N)=NS(=O)(=O)c1ccc(Nc2ccc3nnc(-c4ccncc4)n3n2)cc1
3. Cc1noc(C)c1-c1ccc2nc(NC(=O)[C@H]3CCN(C#N)C3)cn2c1
4. CCOc1nc(-c2ccccc2)cc2c(O)c(C(=O)N/N=C/c3ccc(OC)cc3)[nH]c(=O)c12
5. COc1cccc2c1C(=O)c1c(O)c3c(c(O)c1C2=O)C[C@@](O)(C(=O)COC(=O)c1ccccc1)C[C@@H]3OC1CC(N)C(O)C(C)O1 (some centres undefined)
6. Cc1nc2sccn2c1-c1csc(Nc2cccc(Cl)c2C)n1
7. COc1cc(CSc2nc3ccc(C)cc3c(=O)n2Cc2ccccc2)cc(OC)c1OC
8. Oc1cc(O)c(Br)cc1Br

# output
77.1
103
63.9
98.3
-87.9
45.7
53.1
98.2

Fill in growth for each of the 3 molecules listed.
1. N#CC1C=Cc2c(ccc3ccccc23)N1C(=O)c1ccccc1 (centres undefined)
2. C[C@]12CC[C@H]3[C@@H](CC=C4C[C@@H](O)CC[C@@]43C)[C@@H]1CC[C@@H]2C(=O)C/C=N/O
3. COC1OC2COC(c3ccccc3)OC2C(=O)C1NC(=O)c1ccccc1 (centres undefined)

# output
[45.2, 83.6, 103]

Source: PubChem BioAssay (NCI)
